Test system: S. aureus
Run description: Minimum inhibitory concentrations (MICs) for S. aureus of exemplary compounds (Table 2)
Type: cell-based
Cond: Staphylococcus aureus, minimum inhibitory concentrations for S. aureus; read-out: MICs
Excerpt: Exemplary compounds in accordance with the invention are listed in Table 2 with their minimum inhibitory concentrations (MICs) (μg/mL) for S. aureus: Furthermore, the antibiotic compounds can be assayed for anti-proliferative or anti-infective properties on a cellular level. For example, where the target organism is a microorganism, the activity of compounds of interest can be assayed by growing the microorganisms of interest in media either containing or lacking the compound. […]
Assay readout: MIC (µg/mL)
API: value field is a number in µg/mL; no unit string.

Below are worked cases with known answers.
CCSc1nnn(Cc2ccc(-c3ccc(N4C[C@H](CNC(C)=O)OC4=O)cc3F)cc2)n1
0.5
CC(=O)NC[C@H]1CN(c2ccc(-c3ccc(CNc4nc(CN)ns4)cc3)c(F)c2)C(=O)O1
1
CC(=O)NC[C@H]1CN(c2ccc(-c3ccc(CNCCCn4ccnc4)cc3)c(F)c2)C(=O)O1
32

Q. Check the records and state MIC for CC(=O)NC[C@H]1CN(c2ccc(-c3ccc(CCSc4cnn[nH]4)cc3)c(F)c2)C(=O)O1
A. 0.25
